Source of measurements: patent US20260242735A1

target or system: human CD33 G207A (human, UniProt P20138 18-364)
Sequence (P20138 18-364 G207A limits assumed): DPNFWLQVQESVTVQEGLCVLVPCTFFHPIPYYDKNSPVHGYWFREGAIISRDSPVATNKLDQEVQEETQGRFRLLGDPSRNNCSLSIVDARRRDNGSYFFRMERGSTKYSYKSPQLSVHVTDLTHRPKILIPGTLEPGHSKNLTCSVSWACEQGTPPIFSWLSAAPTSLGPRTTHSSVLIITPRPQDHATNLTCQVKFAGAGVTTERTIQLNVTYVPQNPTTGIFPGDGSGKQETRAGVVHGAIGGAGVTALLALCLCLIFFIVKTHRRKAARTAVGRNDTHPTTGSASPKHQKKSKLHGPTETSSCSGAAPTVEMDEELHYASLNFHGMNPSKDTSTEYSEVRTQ
method description: alanine scan, flow cytometry, HEK293-T;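 note: antibody binding to each alanine-substituted CD33 mutant expressed transiently in HEK293-T, read as fluorescence minus background, mean of duplicates, relative to wild-type CD33 set as 100%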
quantity kind: Mean % WT Binding (%)

INSERT INTO measurements (binder, quantity_kind, data_value) VALUES
  ('Refmab #3 (antibody, V domains shown, In the alanine scan antibodies were used as IgG or Fab) VH: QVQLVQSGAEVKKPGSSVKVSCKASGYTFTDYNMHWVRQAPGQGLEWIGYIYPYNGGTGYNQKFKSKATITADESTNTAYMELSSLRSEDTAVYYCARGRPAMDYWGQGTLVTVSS VL: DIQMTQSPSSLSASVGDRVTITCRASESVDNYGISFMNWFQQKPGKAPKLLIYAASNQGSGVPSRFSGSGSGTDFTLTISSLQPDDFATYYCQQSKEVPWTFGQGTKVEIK', 'Mean % WT Binding', 105),
  ('Refmab #2 (antibody, V domains shown, In the alanine scan antibodies were used as IgG or Fab) VH: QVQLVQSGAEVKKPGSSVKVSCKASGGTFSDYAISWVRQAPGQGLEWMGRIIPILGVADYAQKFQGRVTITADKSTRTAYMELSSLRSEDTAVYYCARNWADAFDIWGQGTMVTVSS VL: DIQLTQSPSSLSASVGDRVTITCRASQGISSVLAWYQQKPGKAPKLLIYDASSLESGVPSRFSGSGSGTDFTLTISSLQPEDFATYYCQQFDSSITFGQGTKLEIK', 'Mean % WT Binding', 109),
  ('Refmab #4 (antibody, V domains shown, In the alanine scan antibodies were used as IgG or Fab) VH: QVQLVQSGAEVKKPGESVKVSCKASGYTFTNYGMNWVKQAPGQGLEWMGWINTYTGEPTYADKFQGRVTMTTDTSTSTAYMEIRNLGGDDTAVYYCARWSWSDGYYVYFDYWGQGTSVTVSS VL: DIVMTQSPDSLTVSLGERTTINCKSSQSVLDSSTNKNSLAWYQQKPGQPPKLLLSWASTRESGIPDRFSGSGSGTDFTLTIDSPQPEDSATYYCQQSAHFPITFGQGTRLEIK', 'Mean % WT Binding', 87.1),
  ('Refmab #1 (antibody, V domains shown, In the alanine scan antibodies were used as IgG or Fab; also called hP67.6) VH: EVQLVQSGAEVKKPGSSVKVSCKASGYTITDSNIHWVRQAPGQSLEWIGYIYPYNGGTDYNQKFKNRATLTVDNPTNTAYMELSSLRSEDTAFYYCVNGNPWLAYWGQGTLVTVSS VL: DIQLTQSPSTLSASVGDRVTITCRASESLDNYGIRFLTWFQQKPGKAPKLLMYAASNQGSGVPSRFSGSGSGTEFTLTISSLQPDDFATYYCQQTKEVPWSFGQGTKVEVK', 'Mean % WT Binding', 94.1);
